Target: P-gp (Homo sapiens, UniProt P08183)
Sequence (P08183 whole entry): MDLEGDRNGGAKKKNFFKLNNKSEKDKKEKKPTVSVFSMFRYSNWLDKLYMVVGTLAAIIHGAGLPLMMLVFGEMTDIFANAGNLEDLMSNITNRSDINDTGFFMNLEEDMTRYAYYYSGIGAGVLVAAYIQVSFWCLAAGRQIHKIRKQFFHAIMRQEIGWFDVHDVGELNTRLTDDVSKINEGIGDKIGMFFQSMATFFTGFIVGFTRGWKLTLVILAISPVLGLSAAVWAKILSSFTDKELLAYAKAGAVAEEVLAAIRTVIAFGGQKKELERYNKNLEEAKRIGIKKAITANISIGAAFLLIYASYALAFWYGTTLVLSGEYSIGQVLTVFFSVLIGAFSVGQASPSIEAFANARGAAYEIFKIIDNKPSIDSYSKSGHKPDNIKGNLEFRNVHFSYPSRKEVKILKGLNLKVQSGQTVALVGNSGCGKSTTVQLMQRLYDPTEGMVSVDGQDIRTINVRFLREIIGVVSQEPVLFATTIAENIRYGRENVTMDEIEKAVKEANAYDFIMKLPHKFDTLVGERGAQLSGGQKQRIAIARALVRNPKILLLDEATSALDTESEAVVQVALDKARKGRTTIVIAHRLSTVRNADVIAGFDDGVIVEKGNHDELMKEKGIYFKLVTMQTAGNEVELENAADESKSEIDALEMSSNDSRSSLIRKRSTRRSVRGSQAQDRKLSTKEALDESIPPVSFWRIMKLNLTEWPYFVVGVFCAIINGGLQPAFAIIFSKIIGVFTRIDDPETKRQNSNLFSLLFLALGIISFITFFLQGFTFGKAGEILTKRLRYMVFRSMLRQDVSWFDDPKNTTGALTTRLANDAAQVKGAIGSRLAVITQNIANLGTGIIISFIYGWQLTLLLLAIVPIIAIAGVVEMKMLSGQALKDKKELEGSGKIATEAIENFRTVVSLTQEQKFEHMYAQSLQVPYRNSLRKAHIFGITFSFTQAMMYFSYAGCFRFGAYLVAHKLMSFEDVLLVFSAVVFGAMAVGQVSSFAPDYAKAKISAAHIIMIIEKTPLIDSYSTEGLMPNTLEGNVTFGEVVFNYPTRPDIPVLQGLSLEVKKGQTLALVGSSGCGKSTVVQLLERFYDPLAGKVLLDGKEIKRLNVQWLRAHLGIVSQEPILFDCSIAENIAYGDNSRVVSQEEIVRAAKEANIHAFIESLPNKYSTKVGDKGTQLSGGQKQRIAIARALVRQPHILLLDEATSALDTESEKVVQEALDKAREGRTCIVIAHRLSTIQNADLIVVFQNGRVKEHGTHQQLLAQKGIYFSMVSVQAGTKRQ
Test: P-gp substrate evaluation, MDCKII-MDR1 penetration test
Conditions: dog, MDCK-MDR1
Endpoint: Papp A→B at 2 h (×10⁻⁶ cm/s)

Challenge: Fill in Papp A→B at 2 h for record COCCc1ccc(OCC(O)CNC(C)C)cc1 (stereo not drawn)
Response given: 27.6

1: COc1cc2nc(N3CCN(C(=O)c4ccco4)CC3)nc(N)c2cc1OC
2: Cc1ccc(NC(=O)c2ccc(CN3CCN(C)CC3)cc2)cc1Nc1nccc(-c2cccnc2)n1
Challenge: Would you let me know which has the greater Papp A→B at 2 h value, 1 or 2 ? Response format: the label of the selected entry.
Response given: 1
